target: DNA cytosine-5 methyltransferase (DCMTase, Dnmt1) (Mus musculus, UniProt P13864 P13864:1-1620); assay: EMSA; unit printed as mM (text indicates micromolar); Hepes pH 7.4, 10 mM EDTA, on ice; details: tags: none; purified from mouse erythroleukemia (MEL) cells; label: 32P (gel shift)
Sequence (P13864 whole entry, one chain of several): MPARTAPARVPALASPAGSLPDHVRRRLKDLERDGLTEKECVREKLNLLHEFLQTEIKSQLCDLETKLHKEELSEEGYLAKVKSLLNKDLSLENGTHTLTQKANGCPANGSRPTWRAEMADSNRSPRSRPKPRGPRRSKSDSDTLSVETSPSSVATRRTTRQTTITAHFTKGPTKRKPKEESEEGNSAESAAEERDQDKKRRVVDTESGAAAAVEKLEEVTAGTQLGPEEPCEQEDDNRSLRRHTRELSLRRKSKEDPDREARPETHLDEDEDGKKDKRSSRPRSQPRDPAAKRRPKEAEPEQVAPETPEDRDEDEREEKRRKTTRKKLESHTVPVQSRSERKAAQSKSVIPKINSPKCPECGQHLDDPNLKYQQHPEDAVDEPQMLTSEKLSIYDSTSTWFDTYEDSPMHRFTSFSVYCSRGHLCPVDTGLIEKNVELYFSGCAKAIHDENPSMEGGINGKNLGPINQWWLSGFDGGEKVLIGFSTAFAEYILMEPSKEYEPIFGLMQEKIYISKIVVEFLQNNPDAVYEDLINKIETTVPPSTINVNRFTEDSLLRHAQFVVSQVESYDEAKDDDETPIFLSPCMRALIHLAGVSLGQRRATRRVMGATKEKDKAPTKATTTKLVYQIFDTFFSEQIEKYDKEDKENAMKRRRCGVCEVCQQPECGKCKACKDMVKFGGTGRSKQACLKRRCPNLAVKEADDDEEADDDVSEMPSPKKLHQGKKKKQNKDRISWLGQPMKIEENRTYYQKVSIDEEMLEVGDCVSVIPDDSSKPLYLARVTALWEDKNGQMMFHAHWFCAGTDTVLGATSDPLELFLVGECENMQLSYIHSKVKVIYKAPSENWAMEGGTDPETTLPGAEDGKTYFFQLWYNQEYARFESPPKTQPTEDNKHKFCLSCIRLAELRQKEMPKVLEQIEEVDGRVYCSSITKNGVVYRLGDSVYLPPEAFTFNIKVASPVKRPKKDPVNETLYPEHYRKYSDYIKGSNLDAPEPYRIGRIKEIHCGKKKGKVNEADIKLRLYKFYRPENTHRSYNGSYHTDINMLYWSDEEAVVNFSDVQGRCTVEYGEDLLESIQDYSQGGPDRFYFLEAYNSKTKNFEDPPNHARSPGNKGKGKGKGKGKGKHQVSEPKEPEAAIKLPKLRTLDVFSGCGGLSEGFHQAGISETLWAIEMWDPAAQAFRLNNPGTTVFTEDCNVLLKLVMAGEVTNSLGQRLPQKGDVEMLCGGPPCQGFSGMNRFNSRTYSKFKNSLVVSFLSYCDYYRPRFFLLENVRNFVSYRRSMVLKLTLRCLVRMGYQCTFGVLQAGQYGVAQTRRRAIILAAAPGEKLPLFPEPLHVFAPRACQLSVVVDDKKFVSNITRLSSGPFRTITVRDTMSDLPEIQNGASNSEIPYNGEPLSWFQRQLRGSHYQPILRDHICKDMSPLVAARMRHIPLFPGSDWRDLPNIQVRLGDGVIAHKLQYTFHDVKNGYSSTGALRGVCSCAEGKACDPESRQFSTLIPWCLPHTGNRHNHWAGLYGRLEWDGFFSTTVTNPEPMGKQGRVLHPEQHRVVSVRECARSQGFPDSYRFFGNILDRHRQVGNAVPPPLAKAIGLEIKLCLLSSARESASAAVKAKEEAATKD
measured.quantity: pKd
Please keep in mind that pKd is minus log10 of the molar concentration; only the number is needed.

Query: Quick one: pKd for GC-box a/b (dsDNA) DNA 1: GGGAATTCAAGGGGCGGGGCAAGGATCCAG DNA 2: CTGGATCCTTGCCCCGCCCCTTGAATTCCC ?
Result: 6.38
